Exercise: state measured inhibition of RB-EPP6 uptake for each of the compounds provided.
- Tested on: RB-EPP6 uptake in U87 cells
- PROTOCOL_TEXT: Endocytosis inhibitors treatment, RB-EPP6 uptake by flow cytometry
- Format: cell-based, human
- CONDITION_INFO: inhibitor 1 h, then 500 nM RB-EPP6 1 h, flow cytometry median intensity
Numbers only, in %.

As a guide, the following entries are already answered.
- MOLECULE: "COC[C@H]1OC(=O)c2coc3c2[C@@]1(C)C1=C(C3=O)[C@@H]2CCC(=O)[C@@]2(C)C[C@H]1OC(C)=O"
  RESULT_VALUE: 48
- MOLECULE: "C=C1[C@@H](C)[C@H]2[C@H](Cc3ccccc3)NC(=O)[C@]23[C@H](OC(C)=O)/C=C/[C@@](C)(O)C(=O)[C@@H](C)C/C=C/[C@H]3[C@@H]1O"
  RESULT_VALUE: 38
- MOLECULE: "O=C(N/N=C/c1ccc(O)c(O)c1)c1cc2ccccc2cc1O"
  RESULT_VALUE: 86

Tested on RB-EPP6 uptake in U87 cells: O=C1NC(=NS(=O)(=O)c2cccc3ccccc23)S/C1=C\c1ccc(Br)cc1 . Observed inhibition of RB-EPP6 uptake: 9

Reference source for all entries: paper PMC9650711
